System: UACC-62 melanoma
Experiment: NCI-60 one-dose screen, 48 h
Conditions: 10 µM unless noted
Compounds without any hit were thinned out: in the full panel of roughly 83,000, 20% have a hit. Activity calls are given as the source filed them. The calls were made as follows: active = growth percent below 10; inactive = the rest.
Write down the outcome that applies. Available outcomes: active, inactive

Exercise: Which outcome was entered for the compound COc1ccc(-c2nc3ccc(-c4nc5ccc(N6CCN(C)CC6)cc5[nH]4)cc3[nH]2)cc1OC in this test?
Solution: inactive

Exercise: State the result this test recorded for Clc1ccc2c(NCCNc3nc(N4CCOCC4)nc4ccccc34)ccnc2c1 .
Solution: active

Exercise: I would be grateful if you could indicate the recorded call for CC[C@]1(O)C[C@@H]2CN(CCc3c([nH]c4ccccc34)[C@@](C(=O)OC)(c3cc4c(cc3OC)N(C)[C@H]3[C@@](O)(C(N)=O)[C@H](O)[C@]5(CC)[C@@H]6C[C@@H]6CN6CC[C@]43[C@@H]65)C2)C1 .
Solution: inactive

Exercise: GET /call?item= C#Cc1cccc(NC(=O)c2ccccc2NC(=O)CCl)c1 returns the recorded outcome of this test.
Solution: inactive

Exercise: How was O=C1c2cc3c(cc2-c2c1c1cc(F)c(F)cc1c(=O)n2CCCn1ccnc1)OCO3 classified in this test?
Solution: active

Exercise: Hi team, can someone confirm the assay call for C=C1c2nc3ccccc3n2C=C(c2cccc(Cl)c2)N1Cc1ccc(OC)cc1 ?
Solution: inactive

Exercise: Lab log entry: CSc1nc(Nc2cccc(NC(=O)/C(C#N)=C/c3c(Cl)cccc3Cl)c2)c(C#N)c(-c2cccc([N+](=O)[O-])c2)n1 — outcome as called in the assay?
Solution: inactive

Exercise: Give the logged outcome of this assay for the following compound: O=C(/C=C/c1ccccc1)c1ccc(O)c(CN2CCN(c3cc4c(cc3F)c(=O)c(C(=O)O)cn4C3CC3)CC2)c1
Solution: inactive

Exercise: GET /call?item= O=C(NCCN1CCOCC1)Nc1ccc(-c2cc3c(Nc4ccc(Oc5cccc(C(F)(F)F)c5)c(Cl)c4)ncnc3s2)cc1 returns the recorded outcome of this test.
Solution: active

Exercise: Each compound tested received a call. Report the one for O=C1c2ccccc2C(=O)c2c(N=Nc3[nH]c(=S)[nH]c3O)cccc21 .
Solution: inactive

Exercise: Assay outcome for COc1cc(Nc2cc(C)nc(N3CCN(c4ccnc5cc(Cl)ccc45)CC3)n2)cc(OC)c1 : what was it?
Solution: active

Exercise: Outcome logged for COc1cc2nc(N3CCCC3)nc(NCCc3ccccc3)c2cc1OC in this assay:
Solution: inactive

Exercise: How did this test come out for COc1ccc(-n2nc(C)c3c(Nc4ccc(NC(=O)Nc5cc(C(F)(F)F)ccc5F)cc4)ncnc32)cc1 ?
Solution: inactive

Exercise: Could you kindly confirm the outcome this assay logged for COc1cc(/C=C/C(=O)c2ccc(O)c(CN3CCN(c4cc5c(cc4F)c(=O)c(C(=O)O)cn5C4CC4)CC3)c2)cc(OC)c1OC ?
Solution: inactive

Exercise: Look up the recorded call for O=C(O)COc1ccc(Cl)cc1C1CCCCC1 in this test.
Solution: inactive

Exercise: Assay outcome for Cc1nc2ccccc2n1C(=O)C[C@@H]1NC(=S)NC1=O : what was it?
Solution: inactive
